Sequence of the target: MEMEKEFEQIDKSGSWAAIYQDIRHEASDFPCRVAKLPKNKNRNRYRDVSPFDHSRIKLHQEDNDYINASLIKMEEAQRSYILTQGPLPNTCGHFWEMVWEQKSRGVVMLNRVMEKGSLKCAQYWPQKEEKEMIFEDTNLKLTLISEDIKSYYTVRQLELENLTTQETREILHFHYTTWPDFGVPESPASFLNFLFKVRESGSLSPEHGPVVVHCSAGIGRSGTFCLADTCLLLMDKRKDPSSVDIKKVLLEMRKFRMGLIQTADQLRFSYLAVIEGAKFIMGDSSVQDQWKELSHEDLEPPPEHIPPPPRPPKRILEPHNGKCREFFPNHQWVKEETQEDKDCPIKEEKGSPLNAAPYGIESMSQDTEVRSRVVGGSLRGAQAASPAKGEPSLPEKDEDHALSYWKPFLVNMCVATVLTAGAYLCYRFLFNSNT
Experimental readout: Ki

query: Bench note: what Ki did CC1(C)Cc2c(sc(NC(=O)C(=O)O)c2C(=O)O)C(C)(C)C1 show?
result: > 300 µM

###

- Assayed target: Tyrosine-protein phosphatase non-receptor type 1 (Homo sapiens, UniProt P18031, V49A)
- Sequence (P18031 whole entry V49A): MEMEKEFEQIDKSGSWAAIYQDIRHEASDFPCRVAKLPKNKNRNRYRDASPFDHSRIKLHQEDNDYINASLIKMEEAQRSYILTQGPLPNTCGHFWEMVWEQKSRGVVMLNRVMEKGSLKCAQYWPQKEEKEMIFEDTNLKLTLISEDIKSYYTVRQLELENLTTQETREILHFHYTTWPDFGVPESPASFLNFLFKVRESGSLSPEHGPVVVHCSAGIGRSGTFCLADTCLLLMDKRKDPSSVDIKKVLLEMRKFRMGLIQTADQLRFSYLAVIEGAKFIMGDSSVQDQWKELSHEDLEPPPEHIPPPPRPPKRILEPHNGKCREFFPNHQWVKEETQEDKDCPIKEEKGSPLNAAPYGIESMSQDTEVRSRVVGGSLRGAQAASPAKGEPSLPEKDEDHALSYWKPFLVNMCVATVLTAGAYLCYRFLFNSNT
- Experiment description: Inhibition of PTP1B V49A mutant
Experimental readout: pKi
Kindly note that pKi refers to -log10 of the concentration in mol/L and answer with the value alone.

query: Give the measured pKi of CC1(C)Cc2c(sc(NC(=O)C(=O)O)c2C(=O)O)C(C)(C)C1 .
result: 4.57

###

- Assayed target: Tyrosine-protein phosphatase non-receptor type 2 (Homo sapiens)
- Sequence (P17706 whole entry): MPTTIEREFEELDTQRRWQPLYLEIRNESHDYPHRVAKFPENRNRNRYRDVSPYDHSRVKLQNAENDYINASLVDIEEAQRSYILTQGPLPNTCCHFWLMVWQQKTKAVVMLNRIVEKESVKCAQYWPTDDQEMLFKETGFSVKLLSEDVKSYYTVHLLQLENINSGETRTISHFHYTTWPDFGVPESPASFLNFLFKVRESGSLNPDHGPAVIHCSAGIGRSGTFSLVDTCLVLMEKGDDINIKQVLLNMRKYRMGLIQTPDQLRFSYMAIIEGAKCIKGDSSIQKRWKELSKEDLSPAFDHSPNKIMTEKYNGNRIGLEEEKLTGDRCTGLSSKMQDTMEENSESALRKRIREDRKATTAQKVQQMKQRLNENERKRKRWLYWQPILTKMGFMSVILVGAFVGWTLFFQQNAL
Experimental readout: Ki

query: Reported Ki for Tyrosine-protein phosphatase non-receptor type 2 (Homo sapiens), given O=C(O)C(=O)Nc1sc2c(c1C(=O)O)CCNC2 ?
result: 10 µM
